# Particulars: in DMSO, 295.65 K
Property: solubility (mole fraction)
Just the number, please, no unit attached.

Quick check: solubility (mole fraction) of "On1nnc2ccccc21" ? 0.0738

---

# Particulars: in ethanol, 310.65 K
Property: solubility (mole fraction)
Just the number, please, no unit attached.

Quick check: solubility (mole fraction) of "On1nnc2ccccc21" ? 0.0746

---

# Particulars: in methanol, 300.65 K
Property: solubility (mole fraction)
Just the number, please, no unit attached.

Quick check: solubility (mole fraction) of "On1nnc2ccccc21" ? 0.0415

---

# Particulars: in acetone, 295.65 K
Property: solubility (mole fraction)

Quick check: solubility (mole fraction) of "On1nnc2ccccc21" ? 0.0229

---

# Particulars: in ethyl acetate, 310.65 K
Property: solubility (mole fraction)
Just the number, please, no unit attached.

Quick check: solubility (mole fraction) of "On1nnc2ccccc21" ? 0.0219

---

# Particulars: in methanol, 290.65 K
Property: solubility (mole fraction)
Just the number, please, no unit attached.

Quick check: solubility (mole fraction) of "On1nnc2ccccc21" ? 0.0314

---

# Particulars: in isopropanol, 303.15 K
Property: solubility (mole fraction)

Quick check: solubility (mole fraction) of "On1nnc2ccccc21" ? 0.0481

---

# Particulars: in acetone, 305.65 K
Property: solubility (mole fraction)

Quick check: solubility (mole fraction) of "On1nnc2ccccc21" ? 0.0306

---

# Particulars: in ethyl acetate, 290.65 K
Property: solubility (mole fraction)
Just the number, please, no unit attached.

Quick check: solubility (mole fraction) of "On1nnc2ccccc21" ? 0.00821

---

# Particulars: in 1,4-dioxane, 308.15 K
Property: solubility (mole fraction)
Just the number, please, no unit attached.

Quick check: solubility (mole fraction) of "On1nnc2ccccc21" ? 0.0298

---

# Particulars: in acetone, 288.15 K
Property: solubility (mole fraction)

Quick check: solubility (mole fraction) of "On1nnc2ccccc21" ? 0.0184

---

# Particulars: in 2-butanone, 280.65 K
Property: solubility (mole fraction)
Just the number, please, no unit attached.

Quick check: solubility (mole fraction) of "On1nnc2ccccc21" ? 0.0169

---

# Particulars: in toluene, 295.65 K
Property: solubility (mole fraction)
Just the number, please, no unit attached.

Quick check: solubility (mole fraction) of "On1nnc2ccccc21" ? 2.85e-05

---

# Particulars: in ethanol, 308.15 K
Property: solubility (mole fraction)
Just the number, please, no unit attached.

Quick check: solubility (mole fraction) of "On1nnc2ccccc21" ? 0.0697

---

# Particulars: in n-propanol, 303.15 K
Property: solubility (mole fraction)

Quick check: solubility (mole fraction) of "On1nnc2ccccc21" ? 0.0573

---

# Particulars: in isopentanol, 300.65 K
Property: solubility (mole fraction)
Just the number, please, no unit attached.

Quick check: solubility (mole fraction) of "On1nnc2ccccc21" ? 0.0155

---

# Particulars: in 1,4-dioxane, 303.15 K
Property: solubility (mole fraction)

Quick check: solubility (mole fraction) of "On1nnc2ccccc21" ? 0.0247

---

# Particulars: in 2-butanone, 290.65 K
Property: solubility (mole fraction)
Just the number, please, no unit attached.

Quick check: solubility (mole fraction) of "On1nnc2ccccc21" ? 0.0225

---

# Particulars: in DMF, 280.65 K
Property: solubility (mole fraction)
Just the number, please, no unit attached.

Quick check: solubility (mole fraction) of "On1nnc2ccccc21" ? 0.0464
